Test system: human peripheral blood mononuclear cells (hPBMCs)
Assay name: Cytokine induction (IL-12p40, IFN-γ, TNF-α) in peripheral blood mononuclear cells, flow cytometric bead array
Format: cell-based
Condition description: PBMC, hPBMC, 24 h incubation, supernatant, CBA, read-out: TNF-α EC50
pEC50: −log10 of the molar value.
Parameter measured: pEC50

Compound	Value
CCCCC(C)(CNC(=O)[C@@H]1CCCN1)Nc1nc(N)nc2cccnc12 (single isomer, unassigned) [Compound 1]	7.52

----------
System tested: Human TLR8 (Homo sapiens (Human))
Sequence (Q9NR97 27-1041): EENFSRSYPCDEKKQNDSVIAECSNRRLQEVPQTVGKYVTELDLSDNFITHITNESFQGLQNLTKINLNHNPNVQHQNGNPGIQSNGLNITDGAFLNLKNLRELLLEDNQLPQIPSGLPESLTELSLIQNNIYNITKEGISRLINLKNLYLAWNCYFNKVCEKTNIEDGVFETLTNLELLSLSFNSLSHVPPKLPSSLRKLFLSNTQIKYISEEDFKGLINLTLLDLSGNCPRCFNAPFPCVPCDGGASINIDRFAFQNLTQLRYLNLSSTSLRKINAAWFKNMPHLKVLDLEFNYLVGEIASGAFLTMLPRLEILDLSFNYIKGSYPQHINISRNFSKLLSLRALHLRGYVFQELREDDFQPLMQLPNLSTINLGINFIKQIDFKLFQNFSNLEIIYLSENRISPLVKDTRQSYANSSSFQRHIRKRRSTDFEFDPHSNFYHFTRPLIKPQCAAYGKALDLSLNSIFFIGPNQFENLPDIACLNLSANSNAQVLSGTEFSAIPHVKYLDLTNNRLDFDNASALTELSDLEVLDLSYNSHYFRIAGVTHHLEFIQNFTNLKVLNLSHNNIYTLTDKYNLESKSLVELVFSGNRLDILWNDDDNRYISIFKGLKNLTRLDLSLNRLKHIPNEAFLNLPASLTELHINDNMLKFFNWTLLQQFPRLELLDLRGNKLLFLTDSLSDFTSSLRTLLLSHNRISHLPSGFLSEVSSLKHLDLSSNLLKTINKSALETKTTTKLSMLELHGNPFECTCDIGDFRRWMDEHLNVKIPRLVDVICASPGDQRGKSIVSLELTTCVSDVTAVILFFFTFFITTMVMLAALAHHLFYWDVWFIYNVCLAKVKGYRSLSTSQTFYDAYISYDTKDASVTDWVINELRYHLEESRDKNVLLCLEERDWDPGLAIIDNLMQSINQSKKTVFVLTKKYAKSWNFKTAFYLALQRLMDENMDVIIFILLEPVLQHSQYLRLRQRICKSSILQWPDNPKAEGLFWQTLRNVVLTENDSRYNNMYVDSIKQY
Assay name: HEK-Blue hTLR8 SEAP reporter gene assay (agonistic activity)
Condition description: HEK-Blue hTLR8 cells, 24 h incubation, SEAP by QUANTI-Blue OD650

Compound	Readout unit	EC50
CCCCC(C)(CNC(=O)[C@@H]1CCCCN1)Nc1nc(N)nc2cccnc12 (single isomer, unassigned)	nM	18
CCCCC(C)(CNC(=O)[C@@H]1CCCN1)Nc1nc(N)nc2ccccc12 (stereo partly shown)	nM	32
CCCCC(C)(CNC(=O)[C@@H]1CCCN1)Nc1nc(N)nc2cccnc12 (single isomer, unassigned)	nM	2
CCCCC(C)(CNC(=O)[C@@H]1CCN1)Nc1nc(N)nc2cccnc12 (single isomer, unassigned)	nM	15
